B1: TTC32 (parent)
chain: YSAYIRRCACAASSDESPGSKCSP

Variants of: B1
Method: protein stability index of a GFP-peptide fusion (GPS, HEK-293T) (PSI 1-6); higher = more stable;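 also: lentivirally expressed fusions sorted by FACS into six bins by GFP to DsRed ratio, PSI derived from sequencing read proportions per bin multiplied by bin number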
Conditions: c terminus: a fixed tail appended
Assign class by protein stability index: not lower than 2 means yes (1); lower than 2 means no (0).

As a guide, the following entries are already answered.
Mutation notation	Class name
S14W	no (0)
A11E	no (0)
P24C	yes (1)

Is protein stability index at least 2? Consider C8P
yes (1)

Is protein stability index at least 2? Consider C22S
yes (1)

Is protein stability index at least 2? Consider R6L
yes (1)

Is protein stability index at least 2? Consider S17F
no (0)

Is protein stability index at least 2? Consider C10V
yes (1)
